Listing: protein stability index of selected variants
B1: PLAGL1 (parent)
chain: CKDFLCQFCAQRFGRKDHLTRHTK

- Variants of: B1
- assay-overview: protein stability index of a GFP-peptide fusion (GPS, HEK-293T) (PSI 1-6); higher = more stable;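 note: lentivirally expressed fusions sorted by FACS into six bins by GFP to DsRed ratio, PSI derived from sequencing read proportions per bin multiplied by bin number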
- condition-set: c terminus: a fixed tail appended

[
  {
    "mutation-code": "T20V",
    "protein stability index": 2.28
  },
  {
    "mutation-code": "Q11G",
    "protein stability index": 2.44
  },
  {
    "mutation-code": "F8L",
    "protein stability index": 2.89
  },
  {
    "mutation-code": "H18M",
    "protein stability index": 1.64
  },
  {
    "mutation-code": "Q7V",
    "protein stability index": 2.02
  },
  {
    "mutation-code": "F13L",
    "protein stability index": 2.44
  },
  {
    "mutation-code": "C1P",
    "protein stability index": 2.2
  },
  {
    "mutation-code": "C9S",
    "protein stability index": 2.03
  },
  {
    "mutation-code": "C6W",
    "protein stability index": 1.78
  },
  {
    "mutation-code": "F13P",
    "protein stability index": 2.35
  },
  {
    "mutation-code": "K24N",
    "protein stability index": 1.9
  },
  {
    "mutation-code": "H22Y",
    "protein stability index": 2.7
  },
  {
    "mutation-code": "A10W",
    "protein stability index": 1.67
  },
  {
    "mutation-code": "L19A",
    "protein stability index": 2.54
  },
  {
    "mutation-code": "L5S",
    "protein stability index": 2.41
  },
  {
    "mutation-code": "D3R",
    "protein stability index": 1.81
  },
  {
    "mutation-code": "T23Y",
    "protein stability index": 1.77
  },
  {
    "mutation-code": "H22E",
    "protein stability index": 1.8
  },
  {
    "mutation-code": "F8C",
    "protein stability index": 3.64
  },
  {
    "mutation-code": "Q7D",
    "protein stability index": 2.2
  },
  {
    "mutation-code": "C9Q",
    "protein stability index": 2.72
  },
  {
    "mutation-code": "D17P",
    "protein stability index": 2.4
  },
  {
    "mutation-code": "C6E",
    "protein stability index": 2.63
  }
]
